Target: human muscarinic M4 receptor (Homo sapiens, UniProt P08173)
Construct: expressed in transfected cells
Sequence (P08173 1-479): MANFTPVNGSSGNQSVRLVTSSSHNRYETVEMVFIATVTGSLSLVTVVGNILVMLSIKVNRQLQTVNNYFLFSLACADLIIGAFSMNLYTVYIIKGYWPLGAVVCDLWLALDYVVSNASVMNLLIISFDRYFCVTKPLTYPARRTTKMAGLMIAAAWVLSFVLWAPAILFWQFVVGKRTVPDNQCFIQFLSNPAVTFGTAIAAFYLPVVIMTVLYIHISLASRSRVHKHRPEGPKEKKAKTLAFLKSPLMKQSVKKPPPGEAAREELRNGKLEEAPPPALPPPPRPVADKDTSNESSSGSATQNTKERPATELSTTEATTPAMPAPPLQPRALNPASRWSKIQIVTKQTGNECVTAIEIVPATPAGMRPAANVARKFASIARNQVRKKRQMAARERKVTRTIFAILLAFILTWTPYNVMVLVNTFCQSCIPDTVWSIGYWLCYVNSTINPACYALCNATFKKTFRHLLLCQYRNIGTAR
Assay: Alphascreen Surefire phospho-ERK1/2 functional assay, M4
Assay type: cell-based
Conditions: CHO, read-out: % Emax cf. ACh, M4, CHO cells stably expressing human M4; relative to ACh
measurement.type: Emax
# output: number + unit

// worked examples, Emax included
compound="CCOC(=O)N1CCC2(CC(N3CCC(C4CCCN4)CC3)C2)C1 (single isomer, unassigned) [2-1 Isomer 2]" test_target="human muscarinic M4 receptor (Homo sapiens, UniProt P08173)" measurement_type=Emax reported_measurement=63%
compound="COC(=O)N1CCC2(CC(N3CCC(c4nccs4)CC3)C2)C1 (single isomer, unassigned) [1-24 Isomer 2]" test_target="human muscarinic M4 receptor (Homo sapiens, UniProt P08173)" measurement_type=Emax reported_measurement=78%
compound="CCOC(=O)N1CCC2(CC(N3CCC(N4CC(F)(F)C[C@@H]4C(=O)N(C)OC)CC3)C2)C1 (single isomer, unassigned) [2-92 Isomer 2]" test_target="human muscarinic M4 receptor (Homo sapiens, UniProt P08173)" measurement_type=Emax reported_measurement=82%
compound="CCOC(=O)N1CCC2(CC(N3CCC([C@@H]4CCCN4C(=O)NCC(F)F)CC3)C2)C1 (single isomer, unassigned) [2-45 Isomer 2]" test_target="human muscarinic M4 receptor (Homo sapiens, UniProt P08173)" measurement_type=Emax reported_measurement=111%
compound="CCOC(=O)N1CCC2(CC(N3CCC([C@@H]4CCCN4c4nccs4)CC3)C2)C1 (single isomer, unassigned) [2-82 Isomer 2]" test_target="human muscarinic M4 receptor (Homo sapiens, UniProt P08173)" measurement_type=Emax reported_measurement=70%

Each compound below has a reported value. Please supply its Emax.
1. CCOC(=O)N1CCC2(CC(N3CCC(N4CCNC4=O)CC3)C2)C1 (single isomer, unassigned) [2-124 Isomer 2]
2. CCOC(=O)N1CCC2(CC(N3CCC(N4CCCC4c4nnn[nH]4)CC3)C2)C1 (single isomer, unassigned) [2-128 Isomer 2]
3. CCOC(=O)N1CCC2(CC(N3CCC(c4nccn4C(=O)OCC)CC3)C2)C1 (single isomer, unassigned) [1-8 Isomer 2]
4. CCOC(=O)N1CCC2(CC(N3CCC(N4CC(F)(F)C[C@@H]4C(=O)NC)CC3)C2)C1 (single isomer, unassigned) [2-88 Isomer 2]
5. CCOC(=O)N1CCC2(CC(N3CCC(c4nccn4CC(=O)NC)CC3)C2)C1 (single isomer, unassigned) [1-54 Isomer 2]
6. CCOC(=O)N1CCC2(CC(N3CCC(N4CCCNC4=O)CC3)C2)C1 (single isomer, unassigned) [4-8 Isomer 1]
7. COC(=O)N1CCC2(CC(N3CCC(c4nn(C)cc4C)CC3)C2)C1 (single isomer, unassigned) [1-55 Isomer 2]
8. CCOC(=O)N1CCC2(CC(N3CCC(N4CC(F)(F)C[C@@H]4C(=O)OC)CC3)C2)C1 (single isomer, unassigned) [2-87 Isomer 2]

77%
104%
98%
44%
74%
74%
64%
100%

Each compound below has a reported value. Please supply its Emax.
1. [2H]C([2H])(C)OC(=O)N1CCC2(CC(N3CCC(n4cccn4)CC3)C2)C1 (single isomer, unassigned) [1-68 Isomer 2]
2. CCOC(=O)N1CCC2(CC(N3CCC(N4C[C@H](F)C[C@@H]4C(=O)OC)CC3)C2)C1 (single isomer, unassigned) [2-134 Isomer 2]
3. CCOC(=O)N1CCC2(CC(N3CCC(c4ccnn4CC)CC3)C2)C1 (single isomer, unassigned) [1-47 Isomer 2]
4. CCOC(=O)N1CCC2(CC(N3CCC(C4CCCN4C(=O)CC)CC3)C2)C1 (single isomer, unassigned) [2-6 Isomer 2]
5. CCOC(=O)N1CCC2(CC(N3CCC(c4ccn[nH]4)CC3)C2)C1 (single isomer, unassigned) [1-18 Isomer 2]
6. CCOC(=O)N1CCC2(CC(N3CCC(c4ccc[nH]c4=O)CC3)C2)C1 (single isomer, unassigned) [3-2 Isomer 1]
7. COC(=O)N1CCC2(CC(N3CCC(c4ccnn4C)CC3)C2)C1 (mixture of isomers) [1-20 Mixture of diastereomers]
8. CCOC(=O)N1CCC2(CC(N3CCC(C4CCCN4C(=O)NC)CC3)C2)C1 (single isomer, unassigned) [2-16 Isomer 2]

["98%", "95%", "81%", "132%", "89%", "115%", "56%", "114%"]

Each compound below has a reported value. Please supply its Emax.
1. CCOC(=O)N1CCC2(CC(N3CCC([C@@H]4CCCN4CC(=O)OC)CC3)C2)C1 (single isomer, unassigned) [2-72 Isomer 2]
2. CCOC(=O)N1CCC2(CC(N3CCC(C4C(=O)NCCC4C)CC3)C2)C1 (single isomer, unassigned) [4-3 Isomer 2]

["52%", "88%"]
